ASSAY PROTOCOL: clinical
CONDITION DESCRIPTION: male, human, in vivo, 10 mg, AUC Actual
MEASURE: AUC (µM·h)
One number for each entry, in µM·h.

[Q] Need AUC of Nc1nc(=O)n(C2C=CC(CO)O2)cc1F [β-D-D4FC] , thanks.
[A] 3.6

* * *

ASSAY PROTOCOL: clinical
CONDITION DESCRIPTION: male, human, in vivo, 50 mg, Cmax Actual
MEASURE: Cmax (µM)
Answers are plain numbers, in µM.

[Q] Need Cmax of Nc1nc(=O)n(C2C=CC(CO)O2)cc1F (stereo not shown) , thanks.
[A] 4.8

* * *

ASSAY PROTOCOL: clinical
CONDITION DESCRIPTION: male, human, in vivo, po, 25 mg, Cmax
MEASURE: Cmax (nM)
Answers are plain numbers, in nM.

[Q] Need Cmax of Nc1nc(=O)n(C2C=CC(CO)O2)cc1F [β-D-D4FC] , thanks.
[A] 1760

* * *

ASSAY PROTOCOL: clinical
CONDITION DESCRIPTION: male, human, in vivo, po, 10 mg
MEASURE: Cmax (nM)
Answers are plain numbers, in nM.

[Q] Need Cmax of Nc1nc(=O)n(C2C=CC(CO)O2)cc1F (stereo not shown) , thanks.
[A] 630

* * *

ASSAY PROTOCOL: clinical
CONDITION DESCRIPTION: male, human, in vivo, 25 mg, Cmax
MEASURE: Cmax (ng/mL)
One number for each entry, in ng/mL.

[Q] Need Cmax of Nc1nc(=O)n(C2C=CC(CO)O2)cc1F [β-D-D4FC] , thanks.
[A] 406

* * *

ASSAY PROTOCOL: Comparison to other nucleosides: plasma pharmacokinetics
MEASURE: half-life (h)
One number for each entry, in h.

[Q] Need half-life of O=c1[nH]cnc2c1ncn2[C@H]1CC[C@@H](CO)O1 [DDI, 2′,3′-dideoxyinosine] , thanks.
[A] 1.5

* * *

ASSAY PROTOCOL: in vivo
CONDITION DESCRIPTION: female, dog, 15 mg/kg
MEASURE: AUC at 12 m

[Q] Need AUC at 12 m of Nc1nc(=O)n(C2C=CC(CO)O2)cc1F (stereo not shown) , thanks.
[A] 431 µM·h

* * *

SYSTEM TESTED: wild type HIV-RT (Human immunodeficiency virus type 1 group M subtype B)
Construct: The Ki value for β-D-D4FC-TP for wild type HIV-RT
ASSAY PROTOCOL: Ki / Km for wild type HIV-RT
Type: biochemical, HIV-1
pKi: −log10 of the molar value.
MEASURE: pKi

>>> result("Nc1nc(=O)n(C2C=CC(CO)O2)cc1F (stereo not drawn)")
7.00

Hey, can you go through the list below and give me pKi for every item?
1. O=c1[nH]cnc2c1ncn2[C@H]1CC[C@@H](CO)O1
2. Cc1cn([C@H]2C=C[C@@H](CO)O2)c(=O)[nH]c1=O [D4T, 2′,3′-didehydro-2′,3′-dideoxythymidine]

[A]
1. 5.10 to 7.10
2. 6.52 to 7.30

* * *

ASSAY PROTOCOL: clinical
CONDITION DESCRIPTION: male, human, in vivo, 10 mg
Protocol: Total of 18 HIV-1 infected males, aged 18-55 years, enrolled, 6 per treatment cohort. In Cohort 3, subjects received either 100 mg, or 200 mg, or placebo. The data was analyzed using non-compartmental and two-compartmental models. HIV RNA levels were also determined using quantitative real-time RT-PCR. […]
MEASURE: Cmax

[Q] Need Cmax of Nc1nc(=O)n(C2C=CC(CO)O2)cc1F (stereo not shown) , thanks.
[A] ~1000 nM

* * *

ASSAY PROTOCOL: Cytotoxicity, MTT reduction
Type: cell-based
CONDITION DESCRIPTION: PBMCs, read-out: TC50
MEASURE: CC50 at 144 h

[Q] Need CC50 at 144 h of Nc1nc(=O)n(C2C=CC(CO)O2)cc1F [β-D-D4FC] , thanks.
[A] > 100 µM

* * *

ASSAY PROTOCOL: Cytotoxicity, MTT reduction
Assay type: cell-based
CONDITION DESCRIPTION: human, Huh7 cells, read-out: TC50
MEASURE: CC50 at 48 h

[Q] Need CC50 at 48 h of Nc1nc(=O)n(C2C=CC(CO)O2)cc1F (stereo not shown) , thanks.
[A] > 30 µM

* * *

ASSAY PROTOCOL: in vivo
CONDITION DESCRIPTION: rat, 15 mg/kg
MEASURE: Cmax at 28 d (µM)
One number for each entry, in µM.

[Q] Need Cmax at 28 d of Nc1nc(=O)n(C2C=CC(CO)O2)cc1F (stereo not shown) , thanks.
[A] 17

* * *

ASSAY PROTOCOL: clinical
CONDITION DESCRIPTION: male, human, in vivo, 25 mg, CLr
Experimental: Total of 18 HIV-1 infected males, aged 18-55 years, enrolled, 6 per treatment cohort. In Cohort 3, subjects received either 100 mg, or 200 mg, or placebo. The data was analyzed using non-compartmental and two-compartmental models. HIV RNA levels were also determined using quantitative real-time RT-PCR. […]
MEASURE: CL renal (mL/min)
Give bare numbers, in mL/min.

[Q] Need CL renal of Nc1nc(=O)n(C2C=CC(CO)O2)cc1F (stereo not shown) , thanks.
[A] 120

* * *

ASSAY PROTOCOL: clinical
CONDITION DESCRIPTION: male, human, in vivo, 50 mg, CLtot/F
MEASURE: CL/F (mL/min)
One number for each entry, in mL/min.

[Q] Need CL/F of Nc1nc(=O)n(C2C=CC(CO)O2)cc1F (stereo not shown) , thanks.
[A] 245

* * *

ASSAY PROTOCOL: clinical
CONDITION DESCRIPTION: male, human, in vivo, 200 mg, tmax
MEASURE: Tmax (h)
Numbers only, in h.

[Q] Need Tmax of Nc1nc(=O)n(C2C=CC(CO)O2)cc1F (stereo not shown) , thanks.
[A] 3.33

* * *

ASSAY PROTOCOL: clinical
CONDITION DESCRIPTION: male, human, in vivo, 200 mg, Cmax Actual
MEASURE: Cmax (µM)
Answers are plain numbers, in µM.

[Q] Need Cmax of Nc1nc(=O)n(C2C=CC(CO)O2)cc1F (stereo not shown) , thanks.
[A] 7.7

* * *

ASSAY PROTOCOL: Cytotoxicity, MTT reduction
Type: cell-based
CONDITION DESCRIPTION: African green monkey, Vero cells, read-out: TC50
MEASURE: CC50 at 96 h

[Q] Need CC50 at 96 h of Nc1nc(=O)n(C2C=CC(CO)O2)cc1F [β-D-D4FC] , thanks.
[A] > 100 µM

* * *

ASSAY PROTOCOL: clinical
CONDITION DESCRIPTION: male, human, in vivo, 50 mg, t1/2 λz
MEASURE: half-life (h)
Give bare numbers, in h.

[Q] Need half-life of Nc1nc(=O)n(C2C=CC(CO)O2)cc1F [β-D-D4FC] , thanks.
[A] 7.73

* * *

ASSAY PROTOCOL: clinical
CONDITION DESCRIPTION: male, human, in vivo, 25 mg, AUC(0-τ)
MEASURE: AUC
# do not omit the unit; it follows the number

[Q] Need AUC of Nc1nc(=O)n(C2C=CC(CO)O2)cc1F [β-D-D4FC] , thanks.
[A] 1830 ng·h/mL

* * *

ASSAY PROTOCOL: clinical
CONDITION DESCRIPTION: male, human, in vivo, po, 25 mg
MEASURE: Cmax (nM)
Give bare numbers, in nM.

[Q] Need Cmax of Nc1nc(=O)n(C2C=CC(CO)O2)cc1F [β-D-D4FC] , thanks.
[A] 1600

* * *

ASSAY PROTOCOL: clinical
CONDITION DESCRIPTION: male, human, in vivo, po, 10 mg, AUC
MEASURE: AUC (µM·h)
Numbers only, in µM·h.

[Q] Need AUC of Nc1nc(=O)n(C2C=CC(CO)O2)cc1F (stereo not shown) , thanks.
[A] 3.57

* * *

ASSAY PROTOCOL: in vivo
CONDITION DESCRIPTION: rat, 15 mg/kg
MEASURE: AUC at 28 d (µM·h)
Give bare numbers, in µM·h.

[Q] Need AUC at 28 d of Nc1nc(=O)n(C2C=CC(CO)O2)cc1F [β-D-D4FC] , thanks.
[A] 70

* * *

ASSAY PROTOCOL: clinical
CONDITION DESCRIPTION: male, human, in vivo, 200 mg, AUC(0-∞)
MEASURE: AUC(0-inf) (ng·h/mL)
Give bare numbers, in ng·h/mL.

[Q] Need AUC(0-inf) of Nc1nc(=O)n(C2C=CC(CO)O2)cc1F [β-D-D4FC] , thanks.
[A] 11400
